Where do these numbers come from? They come from ChEMBL document CHEMBL5058577.

test system: Fibroblast; test: Multiplex assay against human fibroblast; assay type: toxicity, cell-based; settings: 24 h, 10 µM, compound concentration 10 uM, replicate 1
measured_endpoint: Population Tubulin-Different-Phenotype (%)
Put down the number, then write its unit next to it.

molecule: Cc1nn(C)c2nc(NNC(=O)Nc3cc(Cl)nc(Cl)c3)cc(C(C)C)c12
result: 95%

molecule: CCCCCCNC(=O)Nc1ccc(S(=O)(=O)Nc2ccc(CCNC[C@H](O)COc3ccc(O)cc3)cc2)cc1
result: 38%

molecule: Cc1ccc(OCC(O)C(C)NC(C)C)c2c1CCC2.Cl (stereo not drawn)
result: 63%

API: value(readout= Population Tubulin-Different-Phenotype (%), system= Fibroblast, query= Cc1sc2c(c1C)C(c1ccc(Cl)cc1)=N[C@H](CC(=O)OC(C)(C)C)c1nnc(C)n1-2 ) 76%

Same lookup for CCn1c(-c2nc3cc(C(=O)N4CCCC(N)C4)ccc3n2C)cc2ccccc21.Cl (stereo not drawn) , please. 76%

Follow-up entry: O=c1ccc2ccc(OCCCCN3CCN(c4cccc5sccc45)CC3)cc2[nH]1 85%

Same for COCCCN1CCC(NC(=O)c2cc(Cl)c(N)c3c2OCC3)CC1 [PRUCALOPRIDE] 30%

Try S=C(NCCCc1c[nH]cn1)NCCCN(Cc1ccc(Cl)c(Cl)c1)c1ccc(Br)cn1 next. 93%

Also COCCn1c(C)c(C)s/c1=N\C(=O)C1C(C)(C)C1(C)C ? 61%

Follow-up entry: CN(C)C(=O)Cn1cc(-c2ccc(-c3nnc4ccccn34)cc2)cn1 25%

Next molecule up: Cn1cc(C(=O)OCC2CCN(CCNS(C)(=O)=O)CC2)c2ccccc21 42%

Same question for CC(C)(C)c1ccc(CSc2cnn(C(C)(C)C)c(=O)c2Cl)cc1 please. 40%

----------
Attribute: Population Normal (%)
test system: U2OS; experiment: Multiplex assay against U2OS; format: toxicity, cell-based; details: human, 12 h, 1 µM, compound concentration 1 uM, replicate 1
Non-standard residues stand in square brackets, D forms with d. Residues, ends and D or L forms follow the SMILES beside them.
Return type: number; implicit unit %.

molecule: COCCCN1CCC(NC(=O)c2cc(Cl)c(N)c3c2OCC3)CC1 [PRUCALOPRIDE]
assayed_target: U2OS
quantity_unit: %
Population Normal (%): 98
//
molecule: COc1cc2nc(N3CCN(C(=O)c4ccco4)CC3)nc(N)c2cc1OC.Cl [PRAZOSIN HYDROCHLORIDE]
assayed_target: U2OS
quantity_unit: %
Population Normal (%): 97
//
molecule: CCC(=O)OCC(=O)[C@@]1(OC(=O)CC)[C@@H](C)C[C@H]2[C@@H]3CCC4=CC(=O)C=C[C@]4(C)[C@@]3(Cl)[C@@H](O)C[C@@]21C [BECLOMETHASONE DIPROPIONATE]
assayed_target: U2OS
quantity_unit: %
Population Normal (%): 98

Field request: Population Normal (%) | item: CC(C)C[C@@H]1NC(=O)[C@@H](C(C)C)NC(=O)[C@@H]2CCCN2C(=O)[C@@H](CC(=O)O)NC(=O)[C@@H](Cc2c[nH]c3ccccc23)NC1=O [BQ-123] (cyclo(L[dW][dD]P[dV])) 99

Same again, this time with O=C(Nc1cc(-c2ccccc2)nn1-c1ccccc1F)c1ccc([N+](=O)[O-])cc1 95

// next record O=C(O)CCC/C=C\CC1C(O)CC(O)C1/C=C/C(O)COc1cccc(Cl)c1 (configuration not stated) [CLOPROSTENOL] 96

How about this molecule: Cc1nn(C)c2nc(NNC(=O)Nc3cc(Cl)nc(Cl)c3)cc(C(C)C)c12 98

----------
test system: HEK-293T; assay: Multiplex assay against HEK293T; assay type: toxicity, cell-based; conditions: human, 24 h, 10 µM, compound concentration 10 uM, replicate 1
measured_endpoint: Population Healthy Nuclei (%)
The answer is to be given in %; state only the numeric part.

Field request: Population Healthy Nuclei (%) | item: Cc1c(Cc2ccc3ccccc3n2)c2cc(F)ccc2n1CC(=O)O 78

Param item: N[C@](CC1c2ccccc2Oc2ccccc21)(C(=O)O)[C@H]1C[C@@H]1C(=O)O 79

----------
tested on: HEK-293T; test: Multiplex assay against HEK293T; type: toxicity, cell-based; conditions: human, 48 h, 10 µM, compound concentration 10 uM, replicate 1
The following compounds are listed with their measured Total Cell Count values.

The cases that follow already have their Total Cell Count on record.
compound: CC(C)(O)C(=O)N1CCN(c2ccc(C(F)(F)F)c(C3=C(c4c[nH]c5ccccc45)C(=O)NC3=O)c2)CC1
Total Cell Count: 467
//
compound: Cc1nn(C)c2nc(NNC(=O)Nc3cc(Cl)nc(Cl)c3)cc(C(C)C)c12
Total Cell Count: 387
//
compound: CC(C)C[C@H](CO)Nc1nc(S[C@@H](C)c2ccccc2)nc2nc(N)sc12 [AZD-8797]
Total Cell Count: 416
//
compound: COc1c(Nc2ccc(S(C)(=O)=O)nc2C)ncnc1OC1CCN(C(=O)OC(C)C)CC1 [ADP-597]
Total Cell Count: 494

# lookup: Total Cell Count of Cc1cc(O)c(-c2ccc([C@@H](C)CN(C)C)cc2)c2c1[nH]c(=O)c1sccc12 298

Please give the result for O=C(NCCNCC(O)COc1ccc(O)cc1)N1CCOCC1.O=C(NCCNCC(O)COc1ccc(O)cc1)N1CCOCC1.O=C(O)/C=C/C(=O)O (stereo not drawn) [XAMOTEROL FUMARATE] too. 1116

Record: CN(C)C(=O)Cn1cc(-c2ccc(-c3nnc4ccccn34)cc2)cn1 753

# repeat for O=c1nc2[nH]c3ccccc3nc-2c(=O)[nH]1 [ALLOXAZINE] 700

----------
Total Cell Count overview
test system: Fibroblast; experiment: Multiplex assay against human fibroblast; assay type: toxicity, cell-based; details: 12 h, 10 µM, compound concentration 10 uM, replicate 1
The answer should be a number; do not append a unit.

Consider the reported Total Cell Count for these molecules:
smiles_str: COCCn1c(C)c(C)s/c1=N\C(=O)C1C(C)(C)C1(C)C
measured_endpoint: Total Cell Count
result_number: 167
//
smiles_str: Cc1nn(C)c2nc(NNC(=O)Nc3cc(Cl)nc(Cl)c3)cc(C(C)C)c12
measured_endpoint: Total Cell Count
result_number: 139
//
smiles_str: Cc1c(Cc2ccc3ccccc3n2)c2cc(F)ccc2n1CC(=O)O
measured_endpoint: Total Cell Count
result_number: 147
//
smiles_str: CN1CCN(c2ccc(Nc3c4ccccc4nc4ccccc34)cc2)CC1.Cl.Cl.O
measured_endpoint: Total Cell Count
result_number: 158
//
smiles_str: S=C(NCCCc1c[nH]cn1)NCCCN(Cc1ccc(Cl)c(Cl)c1)c1ccc(Br)cn1
measured_endpoint: Total Cell Count
result_number: 220
//
smiles_str: CCCCC[C@H](O)/C=C/[C@H]1[C@H](O)CC(=O)[C@@H]1CCCCCCC(=O)O
measured_endpoint: Total Cell Count
result_number: 136

Data request, read-out Total Cell Count, for COc1cc(Nc2ncc3c(n2)-c2ccc(Cl)cc2C(c2c(F)cccc2OC)=NC3)ccc1C(=O)O 209

And then COc1c(Nc2ccc(S(C)(=O)=O)nc2C)ncnc1OC1CCN(C(=O)OC(C)C)CC1 , what is it? 127

Same read-out for CSc1nc(NC2CCCC2)c([N+](=O)[O-])c(NC2CCCC2)n1 ? 184

----------
test system: HEK-293T; assay: Multiplex assay against HEK293T; assay type: toxicity, cell-based; conditions: human, 24 h, 1 µM, compound concentration 1 uM, replicate 2
measured_endpoint: Total Cell Count
Number only, please.

Past entries and their recorded results:
compound: Cl.Cl.OCCOCCN1CCN(C(c2ccccc2)c2ccc(Cl)cc2)CC1 (centres undefined) [HYDROXYZINE HYDROCHLORIDE]
Total Cell Count: 481
--
compound: CC(C)(C)c1ccc(CSc2cnn(C(C)(C)C)c(=O)c2Cl)cc1
Total Cell Count: 370
--
compound: Cn1cc(C(=O)OCC2CCN(CCNS(C)(=O)=O)CC2)c2ccccc21
Total Cell Count: 283

Requested read-out Total Cell Count, target or system HEK-293T, entry Cc1sc2c(c1C)C(c1ccc(Cl)cc1)=N[C@H](CC(=O)OC(C)(C)C)c1nnc(C)n1-2 479

Then COc1cc(OC2CCN(C(C)=O)CC2)ccc1C(=O)N1CCC(N2C(=O)OCc3ccccc32)CC1 ? 491

Now consider O=C(Nc1cc(-c2ccccc2)nn1-c1ccccc1F)c1ccc([N+](=O)[O-])cc1 . 530

Same question for Cc1cc(O)c(-c2ccc([C@@H](C)CN(C)C)cc2)c2c1[nH]c(=O)c1sccc12 please. 205

For CC(C)C[C@H](CO)Nc1nc(S[C@@H](C)c2ccccc2)nc2nc(N)sc12 then? 421

And for COCCn1c(C)c(C)s/c1=N\C(=O)C1C(C)(C)C1(C)C ? 383
